Tested on: HMVEC cells stimulated with b-FGF
PROTOCOL_DETAILS: b-FGF driven HMVEC proliferation screen
Format: cell-based
QUANTITY_NAME: CC50 (nM)
Give bare numbers, in nM.

COMPOUND | QUANTITY_NAME | VALUE_UNIT | NUMBER
O=C(Nc1ccc(Cl)c2cccnc12)c1ccccn1 [Compound 18] | CC50 | nM | 200

Dear reader, for each entry below, please note its CC50.
1. CCN(C)c1ccccc1NC(=O)c1ccccn1 [Compound 81]
2. CN(C)c1ccccc1NC(=O)c1ccccn1 [Compound 80]
3. COc1cc(NS(=O)(=O)c2ccccn2)c2ncccc2c1 [Compound 72]
4. O=C(Nc1cccc2cccnc12)c1cc(NCCN2CCOCC2)ccn1 [Compound 35]
5. Cc1ccc(NS(=O)(=O)c2ccccn2)c2ncccc12 [Compound 74]
6. Cc1cccnc1C(=O)Nc1cccc2cccnc12 [Compound 24]

OUT:
1. 500
2. 830
3. 240
4. 160
5. 110
6. 150

Dear reader, for each entry below, please note its CC50.
1. CCN(CCN(C)C)c1ccnc(C(=O)Nc2cccc3cccnc23)c1 [Compound 40]
2. O=C(Nc1cccc2cccnc12)c1ncccc1O [Compound 46]
3. O=C(Nc1cccc2cccnc12)c1ccccn1 [Compound 1]
4. O=C(Nc1ccccc1N1CCCC1)c1ccccn1 [Compound 79]
5. CN(C)c1c(NC(=O)c2ccccn2)ccc(Cl)c1Cl [Compound 91]
6. O=C(Nc1cccc2cccnc12)c1cc2ccccc2cn1 [Compound 28]

OUT:
21
66
61
6500
2400
610

Dear reader, for each entry below, please note its CC50.
1. CCN1CCN(c2ccnc(C(=O)Nc3cccc4cccnc34)c2)CC1 [Compound 41]
2. Cc1cc(NC(=O)c2ccccn2)c2ncccc2c1C [Compound 17]
3. O=C(Nc1cc(OCCN2CCOCC2)cc2cccnc12)c1ccccn1 [Compound 20]
4. Cc1cccc(C(=O)Nc2cccc3cccnc23)n1 [Compound 25]
5. O=C(Nc1cc(C(F)(F)F)cc2cccnc12)c1ccccn1 [Compound 5]

OUT:
1: 18; 2: 130; 3: 31; 4: 2300; 5: 120
